assay: Volume of distribution at steady state in Sprague-Dawley rat at 10 mg/kg, iv; assay type: ADME, organism-based; set-up: dose 10 mg/kg, route intravenous; conditions: in vivo, read-out: Vdss
Property name: Vd (L/kg)
Give bare numbers, in L/kg.

**Query** Tell me the measured Vd of C[C@@H]1C[C@H]2[C@@H]3CCC4=CC(=O)C=C[C@]4(C)C3=CC[C@]2(C)[C@@]1(O)C(=O)CO [VAMOROLONE] , please.
**Result** 0.77

====

assay: Tmax in Sprague-Dawley rat at 50 mg/kg, po; format: ADME, organism-based; set-up: dose 50 mg/kg, route oral; conditions: in vivo
Property name: Tmax (h)
Answers are plain numbers, in h.

**Query** Tell me the measured Tmax of C[C@@H]1C[C@H]2[C@@H]3CCC4=CC(=O)C=C[C@]4(C)C3=CC[C@]2(C)[C@@]1(O)C(=O)CO , please.
**Result** 4

====

assay: Inhibition of TNFalpha-induced NFkappaB activation in mouse C2C12 cells incubated for 24 hrs prior to TNFalpha induction measured after 24 hrs by luciferase reporter gene assay; type: cell-based
Record form. Attribute: EC50. Fill in for each entry.

Here are 3 compounds. What values of EC50 were reported for them?
1. C[C@@H]1C[C@H]2[C@@H]3CCC4=CC(=O)CC[C@]4(C)C3=CC[C@]2(C)[C@H]1C(=O)CN1CCN(C)CC1
2. CCCC[C@@H]1C[C@H]2[C@@H]3CCC4=CC(=O)CC[C@]4(C)C3=CC[C@]2(C)[C@H]1C(=O)CO
3. CCCC[C@@H]1C[C@H]2[C@@H]3CCC4=CC(=O)C=C[C@]4(C)C3=CC[C@]2(C)[C@H]1C(=O)CO

**Result**
["> 10 µM", "> 10 µM", "> 10 µM"]

====

biological target: Glucocorticoid receptor (Mus musculus); assay: Induction of glucocorticoid receptor nuclear translocation in mouse C2C12 cells at 1 x 10^-5 to 1.69 x 10^-10 M by chemiluminescence assay relative to control; assay type: cell-based
Property name: Activity (%)
Answers are plain numbers, in %.

CC[C@@H]1C[C@H]2[C@@H]3CCC4=CC(=O)C=C[C@]4(C)C3=CC[C@]2(C)[C@H]1C(=O)CO :: 27
C[C@]12CCC(=O)C=C1CC[C@@H]1C2=CC[C@@]2(C)[C@H]1CC[C@]2(O)C(=O)CN1CCCC1 :: 24.7

Here are 4 compounds. What values of Activity were reported for them?
1. C[C@]12CCC(=O)C=C1CC[C@@H]1C2=CC[C@@]2(C)[C@H]1CC[C@]2(O)C(=O)CO
2. C[C@@H]1C[C@H]2[C@@H]3CCC4=CC(=O)C=C[C@]4(C)C3=CC[C@]2(C)[C@@]1(O)C(=O)CO [VAMOROLONE]
3. C[C@]12CCC(=O)C=C1CC[C@@H]1C2=CC[C@@]2(C)[C@H]1CC[C@]2(O)C(=O)CN1CCOCC1
4. C[C@H]1C[C@H]2[C@@H]3CCC4=CC(=O)C=C[C@]4(C)C3=CC[C@]2(C)[C@@]1(O)C(=O)CO

**Result**
1: 49.2; 2: 80.4; 3: 28.7; 4: 44.5

Here are 2 compounds. What values of Activity were reported for them?
1. CN1CCN(CC(=O)[C@@]2(O)CC[C@H]3[C@@H]4CCC5=CC(=O)CC[C@]5(C)C4=CC[C@@]32C)CC1
2. CCCN(CCC)CC(=O)[C@H]1[C@H](C)C[C@H]2[C@@H]3CCC4=CC(=O)CC[C@]4(C)C3=CC[C@@]21C

**Result**
23.5
37.7
